These entries and their values trace back to patent US7662812B2.

test-target: α7-subtype of nicotinic receptors (Rattus norvegicus, UniProt Q05941)
Sequence (Q05941 23-502): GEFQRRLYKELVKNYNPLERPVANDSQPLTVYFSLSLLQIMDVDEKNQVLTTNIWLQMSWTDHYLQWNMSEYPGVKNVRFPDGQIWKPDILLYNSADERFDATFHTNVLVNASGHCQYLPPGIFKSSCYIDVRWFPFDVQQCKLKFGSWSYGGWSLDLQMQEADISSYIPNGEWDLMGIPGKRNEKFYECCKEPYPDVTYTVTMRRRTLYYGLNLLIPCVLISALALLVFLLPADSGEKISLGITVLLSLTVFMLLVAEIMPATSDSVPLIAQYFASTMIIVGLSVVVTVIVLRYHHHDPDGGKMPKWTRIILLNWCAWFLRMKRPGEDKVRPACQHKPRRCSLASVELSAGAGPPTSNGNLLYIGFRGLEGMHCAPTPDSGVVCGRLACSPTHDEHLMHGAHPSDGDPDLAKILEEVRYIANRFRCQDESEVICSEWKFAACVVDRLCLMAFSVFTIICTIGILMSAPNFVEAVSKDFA
measured-endpoint: pIC50
Worth noting: pIC50 values are minus log10 of concentrations stated in mol/L.

API: value(readout= pIC50, system= α7-subtype of nicotinic receptors (Rattus norvegicus, UniProt Q05941), query= `CN1C2CCC1CN(c1ccc(C#Cc3ccccc3)nn1)C2` )
6.33
